These data points were gathered from patent US20260232732A1.

target: T1, biotin-peptide YVNFNFTDFY (human); experiment: ELISA biotin-peptide; scFv 10 ug/mL; repII
T1 peptide: Biotin-YVNFNFTDFY
Where no end group is shown, it is not given here. The star is where a group is joined. Biotin = O=C1N[C@H]2[C@H](CS[C@H]2CCCCC(=O)*)N1
Provide the reported OD450 of each item.

Binder	OD450
Comparative antibody 2 (Comp-2) scFv, 243LO326 (VH SEQ ID NO: 51 and VL SEQ ID NO: 52 of WO 2022/195028 A2), His-tagged (scFv) scFv: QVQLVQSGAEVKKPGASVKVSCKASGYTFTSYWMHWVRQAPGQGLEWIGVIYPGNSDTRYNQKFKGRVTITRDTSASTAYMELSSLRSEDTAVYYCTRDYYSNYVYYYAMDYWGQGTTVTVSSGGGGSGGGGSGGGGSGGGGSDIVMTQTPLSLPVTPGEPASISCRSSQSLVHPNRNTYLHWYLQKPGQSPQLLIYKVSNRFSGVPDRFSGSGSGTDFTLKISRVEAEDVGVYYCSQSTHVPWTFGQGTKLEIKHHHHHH	2.06 OD

# per-item lookup of OD450; items listed below
1. Comparative antibody 3 (Comp-3) scFv, SR_92R (Somovilla-Crespo et al. 2018), His-tagged (scFv) scFv: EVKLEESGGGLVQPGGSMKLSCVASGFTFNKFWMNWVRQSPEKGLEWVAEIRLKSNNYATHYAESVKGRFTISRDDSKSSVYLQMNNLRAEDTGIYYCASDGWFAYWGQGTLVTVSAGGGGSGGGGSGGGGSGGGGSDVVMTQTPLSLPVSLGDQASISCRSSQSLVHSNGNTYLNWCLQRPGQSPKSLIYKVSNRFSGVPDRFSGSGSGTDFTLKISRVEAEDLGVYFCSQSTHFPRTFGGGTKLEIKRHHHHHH
2. Comparative antibody 1 (Comp-1) scFv, SEQ ID NO: 10 from WO2023/037125 A1, His-tagged (scFv) scFv: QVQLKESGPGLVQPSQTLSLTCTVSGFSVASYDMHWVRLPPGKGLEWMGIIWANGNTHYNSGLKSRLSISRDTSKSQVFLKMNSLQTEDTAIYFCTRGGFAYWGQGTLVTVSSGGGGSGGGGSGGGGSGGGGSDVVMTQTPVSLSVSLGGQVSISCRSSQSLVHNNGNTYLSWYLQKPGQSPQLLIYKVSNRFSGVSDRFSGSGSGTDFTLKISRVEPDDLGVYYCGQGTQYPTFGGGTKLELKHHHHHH

Outgoing:
1: 0.13 OD; 2: 0.09 OD
